B1: tRNA (parent)
chain: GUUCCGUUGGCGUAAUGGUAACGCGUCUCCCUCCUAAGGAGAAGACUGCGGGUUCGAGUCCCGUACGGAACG

# Variants of: B1
# assay-text: yeast fitness relative to wild type (ratio to wild type); higher = fitter; tRNA-Arg(CCU), competitive growth, 37 C, YPD
Variants at the floor of the assay were thinned out.
recorded-metric: yeast fitness

mutant_name="C5A C34U" value_operator== measurement=0.786
mutant_name="U2C C24A C49A" value_operator=≤ measurement=0.5
mutant_name="A20C U26A C61A A65U" value_operator== measurement=0.555
mutant_name="C11G U13G A20C C27G C29A" value_operator=≤ measurement=0.5
mutant_name="C5G A21U A43G C62A" value_operator=≤ measurement=0.5
mutant_name="G9C A15U C31U U35C G51C G56A C62G" value_operator=≤ measurement=0.5
mutant_name="U3A U26G C66U" value_operator=≤ measurement=0.5
mutant_name="A21G C24A A69U A70G" value_operator=≤ measurement=0.5
mutant_name="A14G A45C" value_operator== measurement=0.718
mutant_name="G58C C61U C66U" value_operator== measurement=0.621
mutant_name="U32C A43C C49U" value_operator== measurement=0.648
mutant_name="U2C U3A C31G U35A" value_operator=≤ measurement=0.5
mutant_name="C5U C31U C34U" value_operator=≤ measurement=0.5
mutant_name="C27G U28C" value_operator== measurement=0.609
mutant_name="C29G A40C A57C" value_operator== measurement=0.551
mutant_name="C24G C27U C33U G52C A65G" value_operator=≤ measurement=0.5
mutant_name="C33G C34U G38C U47A" value_operator== measurement=0.517
mutant_name="U7G A36U" value_operator== measurement=0.777
mutant_name="U8A U13A A14C G56C" value_operator=≤ measurement=0.5
mutant_name="C5A C22G" value_operator== measurement=0.862
mutant_name="U3G C11U C46U C61G" value_operator=≤ measurement=0.5
mutant_name="C49A G52A C61U" value_operator=≤ measurement=0.5
mutant_name="G10A A15C C49A C61U C62G" value_operator=≤ measurement=0.5
mutant_name="C4G G9A U32C C33U" value_operator=≤ measurement=0.5
mutant_name="C29U C31U" value_operator== measurement=0.846
mutant_name="U8C C27A" value_operator== measurement=0.791
mutant_name="C5U G18C U26G" value_operator=≤ measurement=0.5
mutant_name="U8C C22G U54A U59A C61U" value_operator=≤ measurement=0.5
mutant_name="A20C A36C G41C G67C A69G" value_operator=≤ measurement=0.5
mutant_name="C30U C55A C62U" value_operator=≤ measurement=0.5
mutant_name="C30U C31U C49A" value_operator=≤ measurement=0.5
mutant_name="A14G A21U G56C G68C" value_operator== measurement=0.637
mutant_name="C24U C46A A65G" value_operator== measurement=0.7
mutant_name="C5G G12A" value_operator== measurement=0.932
mutant_name="G25C G41C A42U C49A" value_operator=≤ measurement=0.5
mutant_name="G10U A40G G58A G68C" value_operator== measurement=0.631
mutant_name="C11G C27G U28G" value_operator== measurement=0.626
mutant_name="G25C C55U A69U" value_operator== measurement=0.609
mutant_name="U2A U16C C30A A43C" value_operator=≤ measurement=0.5
mutant_name="G41C C62A" value_operator== measurement=0.713
mutant_name="U7C G18A C22G C62U A70G" value_operator=≤ measurement=0.5
mutant_name="U13G C22G G63C G67A" value_operator=≤ measurement=0.5
mutant_name="C34U A37G C46U C61A" value_operator== measurement=0.589
mutant_name="G9A U16G A42C" value_operator== measurement=0.955
mutant_name="C4G A15C" value_operator== measurement=0.719
mutant_name="U3C A15C" value_operator== measurement=0.695
mutant_name="G6A C11A U16C U32G C49G C55A" value_operator=≤ measurement=0.5
mutant_name="G58A C61G" value_operator== measurement=0.668
mutant_name="U35C A42C" value_operator== measurement=0.819
mutant_name="C33A U54C C55G" value_operator=≤ measurement=0.5
mutant_name="A14U A21C G41A G67C" value_operator=≤ measurement=0.5
mutant_name="U16G C29U C55G" value_operator=≤ measurement=0.5
mutant_name="A15U C27G" value_operator== measurement=0.531
mutant_name="C31A A37U C49A" value_operator== measurement=0.745
mutant_name="U28G G38C C62G C66U" value_operator=≤ measurement=0.5
mutant_name="C5A C22U C27G C30G" value_operator=≤ measurement=0.5
mutant_name="G9A A20G A40C A42U A43C G48A" value_operator=≤ measurement=0.5
mutant_name="U35C A43G" value_operator== measurement=0.783
mutant_name="U28G A36G" value_operator== measurement=0.712
mutant_name="C30U C49U G52A" value_operator== measurement=0.584
mutant_name="G38A A40C G56A C66U A70C" value_operator=≤ measurement=0.5
mutant_name="G9C C30U A37G C55G" value_operator=≤ measurement=0.5
mutant_name="C22U G25A U32A A36C A70G" value_operator=≤ measurement=0.5
mutant_name="U3A C11G U28A G41C G58C" value_operator=≤ measurement=0.5
mutant_name="A14G C34A C62G G68C" value_operator== measurement=0.763
mutant_name="U28C C61G" value_operator== measurement=0.583
mutant_name="C5A U8C A21G" value_operator== measurement=0.53
mutant_name="U13G A21C" value_operator== measurement=0.611
mutant_name="C5G C11A A40U U64C" value_operator== measurement=0.536
mutant_name="C27A C29A C49A" value_operator=≤ measurement=0.5
mutant_name=U2A value_operator== measurement=0.988
mutant_name="C11A A21G" value_operator== measurement=0.774
mutant_name="U2C G25A G52A" value_operator=≤ measurement=0.5
mutant_name="G17A C22U A37U U47A G68C" value_operator=≤ measurement=0.5
mutant_name="A15C G18A C24A C34U C46G" value_operator=≤ measurement=0.5
mutant_name="C61G A65G" value_operator== measurement=0.713
mutant_name="C5U C11U C34A" value_operator== measurement=0.558
mutant_name="U7A G25A C31U" value_operator== measurement=0.568
mutant_name="C5G G50A" value_operator== measurement=0.835
mutant_name="C4A C34G C61A" value_operator=≤ measurement=0.5
mutant_name="U28C C33G C66A" value_operator== measurement=0.616
mutant_name="U2C A20U U28A" value_operator=≤ measurement=0.5
mutant_name="C46A C62U" value_operator== measurement=1.02
mutant_name="C49U A65U A69U" value_operator== measurement=0.861
mutant_name="A14C C29U A36G A45U A70U" value_operator=≤ measurement=0.5
mutant_name="C4A C5U G58C U64A" value_operator== measurement=0.572
mutant_name="C11U C22U A70G" value_operator== measurement=0.644
mutant_name="G6A U35G A43C G51A" value_operator=≤ measurement=0.5
mutant_name="C24G C46U A70U" value_operator== measurement=0.642
mutant_name="U26A U35C G68A" value_operator== measurement=0.631
mutant_name="A15G U16A A45U" value_operator== measurement=0.642
